Measured values drawn from PubChem BioAssay (Tox21) for this set.

Recorded Potency, one value per entry.
- MEASUREMENT_PROTOCOL: qHTS assay to identify small molecule agonists of the peroxisome proliferator-activated receptor delta (PPARd) signaling pathway - cell viability counter screen (AID 743211); also: potency is read from the fitted curve at half-maximal effect; nearly all actives have a fitted effect of over 55% in size
- TEST_SETTINGS: PPARd-bla HEK293H viability, CellTiter-Glo luminescence, 17 h; series mostly up to 81.1 µM
Records with an inconclusive call do not appear. Active and inactive are the calls of the source. Calls follow the shape of the dose curve; as a rule, active = well fitted cell-killing curve with a large enough effect in the repeat runs; inconclusive = weak or mixed curves; inactive = no such curve, though single readings can be large or run the other way.

Example entries and their recorded answers appear below.
// query Would you mind telling me what Potency value was observed for Cc1nnc2n1-c1sc(CCc3ccc(CC(C)C)cc3)cc1C(c1ccccc1Cl)=NC2C (centres undefined) ?
// result 29.8 µM (active)

// query Would you mind telling me what Potency value was observed for ClC1=C(Cl)[C@]2(Cl)[C@@H]3[C@@H](Cl)[C@H]4O[C@H]4[C@@H]3C1(Cl)C2(Cl)Cl ?
// result 54.9 µM (active)

// query Would you mind telling me what Potency value was observed for CC1COC(Cn2cncn2)(c2ccc(Oc3ccc(Cl)cc3)cc2Cl)O1 (centres undefined) ?
// result 49 µM (active)

The record that follows has no Potency shown yet.
// query Would you mind telling me what Potency value was observed for c1ccc2c(c1)Sc1ccccc1N2CC1CN2CCC1CC2 (centres undefined) ?
// result 10.6 µM (active)
